Cited source: ChEMBL document CHEMBL5096178

# methodDescription: Selectivity index, ratio of IC50 for rat L6 cells to IC50 for erythrocytic stage Plasmodium falciparum NF54
# Type: toxicity
# runParameters: read-out: Ratio IC50
So basically, if selectivity ratio comes in under 200 it's Y, and if it's 200 or more it's N.

Example entries and their recorded answers appear below.
CC1(C)C=Cc2cc(CNCCCc3ccccc3)c(O)cc2O1	N
CC1(C)CCc2cc(CNCc3ccccc3)c3c(c2O1)CCC(C)(C)O3	Y
CC1(C)CCc2c(ccc(CNCCCc3ccccc3)c2O)O1	Y
CC1(C)CCc2cc(CNCCCCc3ccccc3)c(O)cc2O1	N
CC1(C)CCc2c(ccc(CNCc3ccccc3)c2O)O1	N
CC1(C)CCc2cc(CNCCc3ccccc3)c3c(c2O1)CCC(C)(C)O3	Y
CC1(C)CCc2c(ccc(CNCCc3ccccc3)c2O)O1	N
CC1(C)C=Cc2cc(CNCCc3ccccc3)c(O)cc2O1	N
CC1(C)CCc2cc(CNCCCc3ccccc3)c(O)cc2O1	Y
CC1(C)CCc2cc(CNCCCCc3ccccc3)c3c(c2O1)CCC(C)(C)O3	Y

In the record for `CC1(C)CCc2cc(CNCCCc3ccccc3)c3c(c2O1)CCC(C)(C)O3` , is selectivity ratio less than 200? Y
